target: Protein skinhead-1 (Caenorhabditis elegans, UniProt P34707); format: functional
Sequence (P34707 whole entry): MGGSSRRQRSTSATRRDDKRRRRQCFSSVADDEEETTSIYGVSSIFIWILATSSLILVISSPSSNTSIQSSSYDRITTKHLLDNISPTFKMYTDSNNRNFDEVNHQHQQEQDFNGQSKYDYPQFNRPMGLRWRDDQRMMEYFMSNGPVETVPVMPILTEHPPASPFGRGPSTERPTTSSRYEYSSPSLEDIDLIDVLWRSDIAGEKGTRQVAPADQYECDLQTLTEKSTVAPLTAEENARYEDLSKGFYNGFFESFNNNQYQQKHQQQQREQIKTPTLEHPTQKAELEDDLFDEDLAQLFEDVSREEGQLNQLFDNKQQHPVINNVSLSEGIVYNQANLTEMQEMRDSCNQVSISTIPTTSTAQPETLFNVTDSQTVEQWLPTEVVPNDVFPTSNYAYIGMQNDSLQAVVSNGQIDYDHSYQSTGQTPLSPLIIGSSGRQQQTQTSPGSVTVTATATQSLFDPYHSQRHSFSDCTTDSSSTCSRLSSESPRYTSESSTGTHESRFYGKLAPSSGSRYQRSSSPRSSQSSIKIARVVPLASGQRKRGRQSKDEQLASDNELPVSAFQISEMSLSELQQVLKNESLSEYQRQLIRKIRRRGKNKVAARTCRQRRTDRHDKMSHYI
Active and inactive are the calls of the source.
Outcome codes: active, inactive

                                   compound  assigned_category
0  O=C(c1cccc(Cl)c1)N(Cc1cccs1)C1CCS(=O)(=O)C1 (configuration not stated)           inactive
1               Nc1cccc2cc(S(=O)(=O)O)ccc12           inactive
2  O=C(CSc1c2c(nc3ccc(Cl)cc13)CCCC2)NCc1ccco1           inactive
3  Cc1c(CN2CCCC(C(=O)Nc3cccc(-n4cccn4)c3)C2)cnn1C (configuration not stated)           inactive
4  CCOc1ccccc1NC(=O)C(CC(C)C)NC(=O)C1CCC(C)CC1 (configuration not stated)           inactive
5  O=C(/C(=C/Nc1ccc(Br)cc1)C(=O)C(F)(F)F)c1ccco1             active
6  CCN(CC)C(=S)Sc1c(-c2ccccc2)c2cc(Cl)ccc2[nH]c1=O           inactive

---

target: Caspase-6 (Homo sapiens, UniProt P55212); test: inhibition of CASP6 peptide cleavage – biochemical, VEID-R110 fluorescence, cherry-pick, dose response (AID 720632)
Calls of active or inactive are those of the source.
Reported Endpoint: AC50

                              smiles_string  experimental_result
0  N=C(N)N/N=C/c1ccc(N(c2ccccc2)c2ccccc2)cc1    10100 nM (active)
1  NS(=O)(=O)c1ccc(N=Nc2ccc(O)c3ncccc23)cc1     1580 nM (active)
2     Cc1cc(C=O)c(C)n1-c1ccc(Cl)c(C(=O)O)c1     1470 nM (active)
3  Cc1ccc(C(=O)O)cc1N1C(=O)c2cccc3c([N+](=O)[O-])ccc(c23)C1=O    10300 nM (active)
4  CNS(=O)(=O)c1cccc(C(=O)OCC(=O)N2c3ccccc3NC(=O)C2(C)C)c1     3000 nM (active)

---

target: Paired box protein Pax-8 (Homo sapiens, UniProt Q06710); test: PAX8 transcriptional activity inhibition in RMG-I – RMG-I cells, luciferase, cherry-pick, dose response (AID 687027); format: functional, cell-based;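 further: luciferase reporter driven by Pax8 target thyroperoxidase promoter measured by SteadyGlo luminescence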
Sequence (Q06710 whole entry): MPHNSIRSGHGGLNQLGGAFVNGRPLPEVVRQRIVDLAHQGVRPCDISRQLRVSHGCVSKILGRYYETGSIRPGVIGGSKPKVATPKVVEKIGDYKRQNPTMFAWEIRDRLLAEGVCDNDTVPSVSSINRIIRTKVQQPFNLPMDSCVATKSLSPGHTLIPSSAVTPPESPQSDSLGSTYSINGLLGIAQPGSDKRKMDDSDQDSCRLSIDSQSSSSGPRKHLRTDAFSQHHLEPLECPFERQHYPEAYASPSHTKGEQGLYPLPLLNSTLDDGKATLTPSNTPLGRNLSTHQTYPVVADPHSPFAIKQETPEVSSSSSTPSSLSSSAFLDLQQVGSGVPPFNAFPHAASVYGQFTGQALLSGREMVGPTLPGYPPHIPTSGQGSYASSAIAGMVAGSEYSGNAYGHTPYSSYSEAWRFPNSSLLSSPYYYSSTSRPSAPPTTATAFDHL
Active and inactive are the calls of the source.
Documented AC50 across a set of compounds
Reported Endpoint: AC50

>>> print(df.to_string())
                              smiles_string                            assayed_system  reported_endpoint  experimental_result
0  COc1ccc2cc(CNCCOCCOCCNCc3ccc4cc(OC)ccc4c3)ccc2c1  Paired box protein Pax-8 (Homo sapiens, UniProt Q06710)               AC50     19.1 µM (active)
1  Cc1nnc2nc(SCC(=O)NC3CCCCC3)n(-c3ccc(Br)cc3)c(N)c1-2  Paired box protein Pax-8 (Homo sapiens, UniProt Q06710)               AC50     8.51 µM (active)
2  COc1cccc(S(=O)(=O)N(C)C[C@H]2OCc3ccccc3-c3c(n(C)c4ccccc34)C(=O)N([C@@H](C)CO)C[C@H]2C)c1  Paired box protein Pax-8 (Homo sapiens, UniProt Q06710)               AC50     6.16 µM (active)
3  Cc1noc(C)c1S(=O)(=O)Nc1ccc2c(c1)C(=O)N([C@@H](C)CO)C[C@H](C)[C@@H](CN(C)C(=O)Nc1ccc(C(F)(F)F)cc1)OCCCC[C@H](C)O2  Paired box protein Pax-8 (Homo sapiens, UniProt Q06710)               AC50     4.92 µM (active)
4  COc1cccc(-c2ccc3c(c2)[C@H]2[C@H](CCN2S(=O)(=O)c2ccccc2F)[C@@H](CO)N3)c1  Paired box protein Pax-8 (Homo sapiens, UniProt Q06710)               AC50     3.92 µM (active)
5  Cc1ccc(S(=O)(=O)N(C)C[C@H]2Oc3cc(C#Cc4ccncc4)ccc3S(=O)(=O)N([C@@H](C)CO)C[C@@H]2C)cc1  Paired box protein Pax-8 (Homo sapiens, UniProt Q06710)               AC50     2.52 µM (active)
6  CCOc1ccc(C2=Nn3c(nnc3-c3ccccc3OC)SC2)cc1  Paired box protein Pax-8 (Homo sapiens, UniProt Q06710)               AC50    0.317 µM (active)
7  Clc1ccc(Cn2ncc3c(N4CCN(c5ccccc5)CC4)ncnc32)cc1  Paired box protein Pax-8 (Homo sapiens, UniProt Q06710)               AC50     8.65 µM (active)

---

assay: P. falciparum Dd2 growth inhibitors, dose response, SYBR Green, cherry-picked samples (AID 1159567); assay type: functional, cell-based
The source made the active and inactive calls.
// values below are reported AC50
Reported Endpoint: AC50

>>> print(df.to_string())
                              smiles_string  experimental_result
0  COc1cccc(NC(=O)N2[C@H](CO)[C@@H](c3ccccc3)[C@H]2CNCC(C)C)c1     1.75 µM (active)
1  Cc1ccc(S(=O)(=O)N(C)C[C@H]2Oc3cc(C#Cc4ccncc4)ccc3S(=O)(=O)N([C@@H](C)CO)C[C@@H]2C)cc1     1.68 µM (active)
2  COc1ccc(NC(=O)N2CCCCN3[C@@H](CO)[C@H](c4ccc(C#Cc5ccccn5)cc4)[C@@H]3C2)cc1    < 0.3 µM (active)
3  CCCC#Cc1ccc([C@H]2[C@H](CO)N3CCCCN(CC4CCOCC4)C[C@@H]23)cc1     3.68 µM (active)

---

molecular target: Kappa-type opioid receptor (Homo sapiens, UniProt P41145); type: functional
Sequence (P41145 whole entry): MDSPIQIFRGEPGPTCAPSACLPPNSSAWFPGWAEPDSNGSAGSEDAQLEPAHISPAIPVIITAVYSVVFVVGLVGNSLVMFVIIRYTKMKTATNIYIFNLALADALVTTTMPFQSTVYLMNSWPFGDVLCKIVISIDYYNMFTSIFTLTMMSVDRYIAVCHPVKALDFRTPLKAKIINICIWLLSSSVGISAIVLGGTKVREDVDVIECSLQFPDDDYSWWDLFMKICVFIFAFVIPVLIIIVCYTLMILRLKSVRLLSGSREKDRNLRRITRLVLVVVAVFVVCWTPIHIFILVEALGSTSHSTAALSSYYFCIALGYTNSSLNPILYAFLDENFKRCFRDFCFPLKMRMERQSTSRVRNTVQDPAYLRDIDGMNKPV
pIC50: −log10 of the molar value.
Reported Endpoint: pIC50

>>> df
                              smiles_string  experimental_result
0       O=C(Nc1nc(-c2ccccn2)cs1)c1ccc(Cl)s1               < 4.49
1  CC1=NN(c2ccccc2)C(=O)/C1=C/C=C/C=C/N(C)C               < 4.49
2  COc1cc(OC)cc(-c2nnc(NC(=O)c3ccc4c(c3)OCCO4)o2)c1               < 4.49

---

target: Cytochrome P450 3A4 (Homo sapiens);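 further: CYP3A4 tested as one member of a cytochrome P450 panel screen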
Sequence (P08684 whole entry): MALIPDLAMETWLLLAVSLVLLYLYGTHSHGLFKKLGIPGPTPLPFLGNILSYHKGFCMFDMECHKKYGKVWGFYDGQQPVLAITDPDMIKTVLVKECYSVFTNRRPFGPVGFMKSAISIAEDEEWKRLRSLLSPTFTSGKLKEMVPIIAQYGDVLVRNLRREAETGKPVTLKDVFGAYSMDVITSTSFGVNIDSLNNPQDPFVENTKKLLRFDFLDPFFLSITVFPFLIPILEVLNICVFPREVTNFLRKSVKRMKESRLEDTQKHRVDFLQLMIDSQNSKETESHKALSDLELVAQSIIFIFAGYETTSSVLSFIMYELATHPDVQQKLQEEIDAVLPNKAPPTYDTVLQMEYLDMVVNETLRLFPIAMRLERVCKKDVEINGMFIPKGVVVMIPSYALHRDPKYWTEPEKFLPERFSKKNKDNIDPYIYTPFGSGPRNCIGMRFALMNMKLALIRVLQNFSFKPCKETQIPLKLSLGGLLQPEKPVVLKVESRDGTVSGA
Reported Endpoint: AC50

>>> df
                                   molecule     experimental_result
0  CN(C)c1ccc(-c2nc(NC3CCNCC3)c3ccccc3n2)cc1  31.6 µM (inconclusive)
1  CCC[C@@H]1C[C@@]1(CCC)C(NC(=O)c1ccccc1)c1cccc(Cl)c1 (stereo not given in full)  3.98 µM (inconclusive)
2  CN1CCN(c2ncc3nc(-c4cn(C)c5ccccc45)c(=O)n(C)c3n2)CC1  25.1 µM (inconclusive)
3  Cc1cc(C)n(CCCNCC(O)c2ccccc2)n1 (stereo not given)  35.5 µM (inconclusive)
4  CC(C)(C)c1ccc(-c2nnc(SCc3ccc(Cl)cc3)n2-c2cccc(C(F)(F)F)c2)cc1  3.16 µM (inconclusive)

---

assay: Trypanosoma cruzi growth suppression in host cells – NIH3T3 host cells, beta-gal luminescence, confirmation (AID 2044); assay type: functional, cell-based;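 further: intracellular parasites grown in NIH/3T3 mouse fibroblasts as host cells; luminescent beta-galactosidase reporter signal from transgenic T. cruzi replicating inside host cells; inhibitors lower the luminescence signal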
Active and inactive are the calls of the source.
Measured EC50, listed per entry for reference.
Reported Endpoint: EC50

In [3]: df
Out[3]:
                                   compound  experimental_result
0  CCCCN(CC)S(=O)(=O)c1ccc(C(=O)N(CCCN(C)C)c2nc3cc(C)cc(C)c3s2)cc1      227 nM (active)
1  CCCn1c(=N)c(C(=O)NCc2ccc3c(c2)OCO3)cc2c(=O)n3cccc(C)c3nc21     1670 nM (active)
2            COc1ccccc1CNc1ccc(N2CCCCC2)cc1     3170 nM (active)
3  O=C(CN(Cc1cccs1)S(=O)(=O)c1ccc(S(=O)(=O)NC2CCCCC2)cc1)Nc1ccccc1     2080 nM (active)
4  Cc1[nH]c2ccc(F)cc2c1CCN(Cc1cccnc1)C(S)=Nc1cccc(F)c1      608 nM (active)
5  CCOc1ccc(CN2CCN(Cc3[nH]c4ccc(OC)cc4c3C)CC2CCO)cc1 (stereo unspecified)      141 nM (active)

---

target: High affinity choline transporter 1 (Homo sapiens, UniProt Q9GZV3); assay: human choline transporter blockers, potency – cell-based, 5-point CRC, membrane potential dye, dose response (AID 504840); type: functional
Sequence (Q9GZV3 whole entry): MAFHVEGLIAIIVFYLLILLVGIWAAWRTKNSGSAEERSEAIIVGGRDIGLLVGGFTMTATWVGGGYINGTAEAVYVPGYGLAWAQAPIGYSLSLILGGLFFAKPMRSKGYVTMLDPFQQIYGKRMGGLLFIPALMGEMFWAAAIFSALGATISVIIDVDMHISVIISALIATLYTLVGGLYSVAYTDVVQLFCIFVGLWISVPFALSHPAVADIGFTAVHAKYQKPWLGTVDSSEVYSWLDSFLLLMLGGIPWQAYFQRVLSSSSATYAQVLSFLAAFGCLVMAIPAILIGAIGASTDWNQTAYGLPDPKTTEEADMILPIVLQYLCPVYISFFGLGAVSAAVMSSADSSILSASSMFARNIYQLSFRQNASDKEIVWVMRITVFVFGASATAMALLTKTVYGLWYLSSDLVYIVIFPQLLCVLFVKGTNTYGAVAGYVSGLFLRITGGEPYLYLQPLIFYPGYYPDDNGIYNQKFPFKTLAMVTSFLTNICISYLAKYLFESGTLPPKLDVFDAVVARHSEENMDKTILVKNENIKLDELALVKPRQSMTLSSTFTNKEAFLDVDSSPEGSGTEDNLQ
Active and inactive are the calls of the source.
IC50 by entry:
Reported Endpoint: IC50

In [3]: df
Out[3]:
                                   compound  reported_endpoint  experimental_result
0  O=[N+]([O-])c1cccc(S(=O)(=O)Nc2ccc(Cc3ccncc3)cc2)c1               IC50     10.5 µM (active)
1  CCN(CC)CCCCCCCCOC(=O)c1cc(OC)c(OC)c(OC)c1               IC50     15.1 µM (active)
2  CC(=O)Oc1cc2c3c(c1)/C(=C1/SC(=S)NC1=O)C(=O)N3C(C)(C)C=C2C               IC50     1.21 µM (active)
3      O=[N+]([O-])c1ccc(Sc2ncc3ccccn23)nc1               IC50      3.9 µM (active)
4  O=C(NCCc1ccccc1)c1ccc2c(=O)[nH]c3c(C(=O)NCC4CCCO4)sc(=S)n3c2c1 (stereo not given)               IC50     16.6 µM (active)
